Here, each record is paired with measured pIC50 data.
Measured target: UniProtKB Q00535
Sequence (Q00535 whole entry): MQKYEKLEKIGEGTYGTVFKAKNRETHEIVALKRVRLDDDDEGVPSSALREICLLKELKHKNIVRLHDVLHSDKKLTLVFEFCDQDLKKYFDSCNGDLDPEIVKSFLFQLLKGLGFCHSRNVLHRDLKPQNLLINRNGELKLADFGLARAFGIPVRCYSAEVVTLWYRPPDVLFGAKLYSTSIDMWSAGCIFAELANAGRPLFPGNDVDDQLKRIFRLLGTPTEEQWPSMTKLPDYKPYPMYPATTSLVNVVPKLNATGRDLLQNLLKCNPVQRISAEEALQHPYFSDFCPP
Keep in mind that pIC50 stands for -log10 of concentration in molar terms.

Enter measured pIC50, system UniProtKB Q00535, for the compound shown: NCCCc1ccc2c(c1)-c1[nH]c3ccc([N+](=O)[O-])cc3c1CC(=O)N2 [Alsterpaullone derivative, 4]
7.64

Give pIC50 for this entry on UniProtKB Q00535: O=C(O)CCc1ccc2c(c1)-c1[nH]c3ccc([N+](=O)[O-])cc3c1CC(=O)N2 [Alsterpaullone derivative, 5]
7.10

Look up and report pIC50, with UniProtKB Q00535 as system, for "N#CCCc1ccc2c(c1)-c1[nH]c3ccc([N+](=O)[O-])cc3c1CC(=O)N2"
7.52

Data origin: BindingDB's records for doi:10.1002/cbic.200400099
